experimentSummary: everolimus arterial tissue concentration in and next to the stented vessel
Type: in vivo, swine
recordedConditions: swine, 3209 μg, swine; 8.0×28 mm stent, group 3, 3209 μg; 28 days; read-out: drug concentration in tissue proximal to stented region

# compound, concentration at 28 days [ng/g]
rows = [
    ("CO[C@H]1C[C@@H]2CC[C@@H](C)[C@@](O)(O2)C(=O)C(=O)N2CCCC[C@H]2C(=O)O[C@H]([C@H](C)C[C@@H]2CC[C@@H](OCCO)[C@H](OC)C2)CC(=O)[C@H](C)/C=C(\\C)[C@@H](O)[C@@H](OC)C(=O)[C@H](C)C[C@H](C)/C=C/C=C/C=C/1C [everolimus, 40-O-(2-hydroxyethyl)-rapamycin]", 136),
]

====

experimentSummary: everolimus arterial tissue concentration in and next to the stented vessel
Assay type: in vivo, swine
recordedConditions: swine, other: drug-eluting stent implanted in iliofemoral arteries, 1070 μg, swine; 10.0×28 mm stent, 1070 μg; 3 days; read-out: drug concentration in tissue proximal to stented region
recordedEndpoint: concentration at 3 days (ng/g)

# compound, recordedNumber
measured = [
    ("CO[C@H]1C[C@@H]2CC[C@@H](C)[C@@](O)(O2)C(=O)C(=O)N2CCCC[C@H]2C(=O)O[C@H]([C@H](C)C[C@@H]2CC[C@@H](OCCO)[C@H](OC)C2)CC(=O)[C@H](C)/C=C(\\C)[C@@H](O)[C@@H](OC)C(=O)[C@H](C)C[C@H](C)/C=C/C=C/C=C/1C [everolimus, 40-O-(2-hydroxyethyl)-rapamycin]", 100),
]

====

experimentSummary: everolimus arterial tissue concentration in and next to the stented vessel
Assay type: in vivo, swine
recordedConditions: swine, arterial tissue of stented region, 1070 μg, swine; 8.0×28 mm stent, group 2, 1070 μg Lot #2; 3 days; read-out: drug concentration in tissue of stented region

# compound, concentration at 3 days
measured = [
    ("CO[C@H]1C[C@@H]2CC[C@@H](C)[C@@](O)(O2)C(=O)C(=O)N2CCCC[C@H]2C(=O)O[C@H]([C@H](C)C[C@@H]2CC[C@@H](OCCO)[C@H](OC)C2)CC(=O)[C@H](C)/C=C(\\C)[C@@H](O)[C@@H](OC)C(=O)[C@H](C)C[C@H](C)/C=C/C=C/C=C/1C [everolimus, 40-O-(2-hydroxyethyl)-rapamycin]", "8710 ng/g"),
]

====

experimentSummary: everolimus arterial tissue concentration in and next to the stented vessel
Format: in vivo, swine
recordedConditions: swine, arterial tissue of stented region, 1070 μg, swine; 10.0×28 mm stent, 1070 μg; 14 days; read-out: drug concentration in tissue of stented region

# compound, unitAnnotation, concentration at 14 days
measured = [
    ("CO[C@H]1C[C@@H]2CC[C@@H](C)[C@@](O)(O2)C(=O)C(=O)N2CCCC[C@H]2C(=O)O[C@H]([C@H](C)C[C@@H]2CC[C@@H](OCCO)[C@H](OC)C2)CC(=O)[C@H](C)/C=C(\\C)[C@@H](O)[C@@H](OC)C(=O)[C@H](C)C[C@H](C)/C=C/C=C/C=C/1C [everolimus, 40-O-(2-hydroxyethyl)-rapamycin]", "ng/g", 4140),
]

====

experimentSummary: everolimus arterial tissue concentration in and next to the stented vessel
Assay type: in vivo, swine
recordedConditions: swine, arterial tissue, proximal stented region (B), swine; 7.0×100 mm stent; 90 days; read-out: Mean Arterial Tissue Concentration, B proximal stented region
recordedEndpoint: concentration at 90 days (ng/g)

# compound, recordedNumber
measured = [
    ("CO[C@H]1C[C@@H]2CC[C@@H](C)[C@@](O)(O2)C(=O)C(=O)N2CCCC[C@H]2C(=O)O[C@H]([C@H](C)C[C@@H]2CC[C@@H](OCCO)[C@H](OC)C2)CC(=O)[C@H](C)/C=C(\\C)[C@@H](O)[C@@H](OC)C(=O)[C@H](C)C[C@H](C)/C=C/C=C/C=C/1C [everolimus, 40-O-(2-hydroxyethyl)-rapamycin]", 2210),
]

====

experimentSummary: everolimus arterial tissue concentration in and next to the stented vessel
Assay type: in vivo, swine
recordedConditions: swine, arterial tissue, distal stented region (D), swine; 7.0×100 mm stent; 14 days; read-out: Mean Arterial Tissue Concentration, D distal stented region
recordedEndpoint: concentration at 14 days (ng/g)

# compound, recordedEndpoint, unitAnnotation, recordedNumber
records = [
    ("CO[C@H]1C[C@@H]2CC[C@@H](C)[C@@](O)(O2)C(=O)C(=O)N2CCCC[C@H]2C(=O)O[C@H]([C@H](C)C[C@@H]2CC[C@@H](OCCO)[C@H](OC)C2)CC(=O)[C@H](C)/C=C(\\C)[C@@H](O)[C@@H](OC)C(=O)[C@H](C)C[C@H](C)/C=C/C=C/C=C/1C [everolimus, 40-O-(2-hydroxyethyl)-rapamycin]", "concentration at 14 days", "ng/g", 6530),
]

====

experimentSummary: everolimus arterial tissue concentration in and next to the stented vessel
Type: in vivo, swine
recordedConditions: swine, arterial tissue of the stented region, other: drug-eluting stent implanted in iliofemoral arteries, 1070 μg, swine; 10.0×28 mm stent, 1070 μg; 90 days; read-out: drug concentration in tissue of stented region
recordedEndpoint: concentration at 90 days (ng/g)

# compound, recordedNumber
records = [
    ("CO[C@H]1C[C@@H]2CC[C@@H](C)[C@@](O)(O2)C(=O)C(=O)N2CCCC[C@H]2C(=O)O[C@H]([C@H](C)C[C@@H]2CC[C@@H](OCCO)[C@H](OC)C2)CC(=O)[C@H](C)/C=C(\\C)[C@@H](O)[C@@H](OC)C(=O)[C@H](C)C[C@H](C)/C=C/C=C/C=C/1C [everolimus, 40-O-(2-hydroxyethyl)-rapamycin]", 2300),
]

====

experimentSummary: everolimus arterial tissue concentration in and next to the stented vessel
Type: in vivo, swine
recordedConditions: swine, arterial tissue of the stented region, other: drug-eluting stent implanted in iliofemoral arteries, 1070 μg, swine; 10.0×28 mm stent, 1070 μg; 3 days; read-out: drug concentration in tissue of stented region

# compound, unitAnnotation, concentration at 3 days
records = [
    ("CO[C@H]1C[C@@H]2CC[C@@H](C)[C@@](O)(O2)C(=O)C(=O)N2CCCC[C@H]2C(=O)O[C@H]([C@H](C)C[C@@H]2CC[C@@H](OCCO)[C@H](OC)C2)CC(=O)[C@H](C)/C=C(\\C)[C@@H](O)[C@@H](OC)C(=O)[C@H](C)C[C@H](C)/C=C/C=C/C=C/1C [everolimus, 40-O-(2-hydroxyethyl)-rapamycin]", "ng/g", 6610),
]

====

experimentSummary: everolimus arterial tissue concentration in and next to the stented vessel
Assay type: in vivo, swine
recordedConditions: swine; 7.0×100 mm stent; 3 days; read-out: Mean Arterial Tissue Concentration, A non-stented region proximal to stented region

# compound, concentration at 3 days
data = [
    ("CO[C@H]1C[C@@H]2CC[C@@H](C)[C@@](O)(O2)C(=O)C(=O)N2CCCC[C@H]2C(=O)O[C@H]([C@H](C)C[C@@H]2CC[C@@H](OCCO)[C@H](OC)C2)CC(=O)[C@H](C)/C=C(\\C)[C@@H](O)[C@@H](OC)C(=O)[C@H](C)C[C@H](C)/C=C/C=C/C=C/1C [everolimus, 40-O-(2-hydroxyethyl)-rapamycin]", "269 ng/g"),
]

====

experimentSummary: everolimus arterial tissue concentration in and next to the stented vessel
Type: in vivo, swine
recordedConditions: swine, arterial tissue, proximal stented region (B), swine; 7.0×100 mm stent; 7 days; read-out: Mean Arterial Tissue Concentration, B proximal stented region

# compound, concentration at 7 days / ng/g
measured = [
    ("CO[C@H]1C[C@@H]2CC[C@@H](C)[C@@](O)(O2)C(=O)C(=O)N2CCCC[C@H]2C(=O)O[C@H]([C@H](C)C[C@@H]2CC[C@@H](OCCO)[C@H](OC)C2)CC(=O)[C@H](C)/C=C(\\C)[C@@H](O)[C@@H](OC)C(=O)[C@H](C)C[C@H](C)/C=C/C=C/C=C/1C [everolimus, 40-O-(2-hydroxyethyl)-rapamycin]", 7890),
]

====

experimentSummary: everolimus arterial tissue concentration in and next to the stented vessel
Type: in vivo, swine
recordedConditions: swine, arterial tissue, medial stented region (C), swine; 7.0×100 mm stent; 14 days; read-out: Mean Arterial Tissue Concentration, C medial stented region

# molecule, concentration at 14 days [ng/g]
rows = [
    ("CO[C@H]1C[C@@H]2CC[C@@H](C)[C@@](O)(O2)C(=O)C(=O)N2CCCC[C@H]2C(=O)O[C@H]([C@H](C)C[C@@H]2CC[C@@H](OCCO)[C@H](OC)C2)CC(=O)[C@H](C)/C=C(\\C)[C@@H](O)[C@@H](OC)C(=O)[C@H](C)C[C@H](C)/C=C/C=C/C=C/1C [everolimus, 40-O-(2-hydroxyethyl)-rapamycin]", 5240),
]

Data origin: patent US9358096B2
